# test: Human studies with orally-administered Cl-IB-MECA, plasma half life
# Format: in vivo
# test-context: oral administration, read-out: half life in human plasma from peak concentration
parameter: half-life

CNC(=O)[C@H]1O[C@@H](n2cnc3c(NCc4cccc(I)c4)nc(Cl)nc32)[C@H](O)[C@@H]1O has a reported half-life of 12 to 14 h

* * *

# assay-system: A2B adenosine receptor (Homo sapiens, UniProt P29275)
# Sequence (P29275 whole entry): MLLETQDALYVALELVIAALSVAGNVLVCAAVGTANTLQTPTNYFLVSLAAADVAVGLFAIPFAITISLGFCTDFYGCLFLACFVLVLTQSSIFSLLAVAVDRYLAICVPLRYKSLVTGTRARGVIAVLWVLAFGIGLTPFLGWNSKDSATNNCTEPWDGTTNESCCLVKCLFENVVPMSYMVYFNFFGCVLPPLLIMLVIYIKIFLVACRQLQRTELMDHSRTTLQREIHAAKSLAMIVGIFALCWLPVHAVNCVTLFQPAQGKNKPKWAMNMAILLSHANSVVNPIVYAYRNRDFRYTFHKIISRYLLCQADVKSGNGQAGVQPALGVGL
# test: Binding affinity to adenosine A2B receptor
# test-context: read-out: IC50
parameter: pIC50
Please keep in mind that pIC50 is minus log10 of the molar concentration; only the number is needed.

CNC(=O)[C@H]1O[C@@H](n2cnc3c(NCc4cccc(I)c4)ncnc32)[C@H](O)[C@@H]1O has a reported pIC50 of 4.32
